molecular target: T1, hPD-1-Fc (human, UniProt Q15116 25-167, limits assumed); experiment: dose-response ELISA, immobilized hPD-1-Fc
T1 construct: It was immobilized on the ELISA plate; also called soluble human PD-1-Fc; not shown: Fc part
T1 sequence (Q15116 25-167 limits assumed): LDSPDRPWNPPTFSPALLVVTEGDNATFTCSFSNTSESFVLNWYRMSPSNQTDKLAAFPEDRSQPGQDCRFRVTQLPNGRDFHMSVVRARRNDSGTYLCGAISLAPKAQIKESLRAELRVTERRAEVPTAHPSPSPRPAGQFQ
result.type: binding result

Looking up R4B3 (antibody, V domains shown) VH: EVQLLESGGGLVQPGGSLRLSCAASGFTFSYYWMSWVRQAPGKGLEWVSYISPSGGMTKYADSVKGRFTISRDNSKNTLYLQMNSLRAEDTAVYYCASASYDYVWGIYHYDVFDIWGQGTMVTVSS VL: DIQMTQSPSSVSASVGDRVTITCRASQGISSWLAWYQQKPGKAPKLLIYAASSLQSGVPSRFSGSGSGTDFTLTISSLQPEDFATYYCQQANSFPLTFGGGTKVEIKR , I see its binding result listed as binds

Looking up R3A2 (antibody, V domains shown) VH: EVQLLESGGGLVQPGGSLRLSCAASGFTFSWYSMLWVRQAPGKGLEWVSRIYPSGGFTYYADSVKGRFTISRDNSKNTLYLQMNSLRAEDTAVYYCARVIDIVGATGRLQHGMDVWGQGTTVTVSS VL: QYELTQPPSVSVAPGQTAKITCGGNNIGSKSVNWYQQKTGQAPVLVVHDDSDRPSGIPERLSGSNSGNTATLTISRAEAGDEADYYCQVWDSVSDHYVFGTGTKVTVLG , I see its binding result listed as binds

Looking up R3A1 (antibody, V domains shown) VH: EVQLLESGGGLVQPGGSLRLSCAASGFTFSRYHMMWVRQAPGKGLEWVSSIYPSGGYTYYADSVKGRFTISRDNSKNTLYLQMNSLRAEDTAVYYCAREYFSGPDYWGQGTLVTVSS VL: DIQMTQSPSTLSASVGDRVTITCRASQKISRWLAWYQQTPGKAPKLLIYRASDLESGVPSRFSGSGSGTEFTLTISSLQPDDFATYYCQQYNTYPYTFGQGTKLEIKR , I see its binding result listed as binds

Looking up R3D6 (antibody, V domains shown) VH: EVQLLESGGGLVQPGGSLRLSCAASGFTFSDYNMAWVRQAPGKGLEWVSSIGPSGGNTHYADSVKGRFTISRDNSKNTLYLQMNSLRAEDMAVYYCARERVEYYYYGMDVWGKGTTVTVSS VL: QSALTQAPSVSVAPGQTARITCGGDNIESLSVHWYQQKPGQAPVLVVYDDADRPSGTPERFSGSNSGNTATLTINRAEAGDEADYYCQVWDYSSDVVVFGGGTTLTVLG , I see its binding result listed as binds
